- assay.overview: counter-screen: blocks GFP chromophore formation, dose response, counter-screen, biochemical, fluorescence, homogeneous (AID 434968)
- condition.details: cell-free GFP chromophore formation
The whole screen tested about 2,100 compounds, of which about 1,800 (86%) were called active. How the calls were made is not given here. The set was probably picked from earlier hits. Not all results are given here.
Possible outcomes: t = active, f = inactive

{"columns": ["mol.smiles", "discrete.label"],
 "data": [
  ["O=C(c1ccc(Cl)cc1)n1cnc2ccccc21", "t"],
  ["COc1ccccc1-n1nnnc1S(=O)(=O)Cc1ccc(Cl)cc1", "t"],
  ["Cc1[nH][nH]c(=O)c1C(c1ccc2c(c1)OCO2)c1c(C)[nH][nH]c1=O", "t"],
  ["Cc1[nH]n(C)c(=O)c1C(=O)c1c(-c2c(Cl)cccc2Cl)noc1C", "t"],
  ["COc1ccc2c(c1)C(=C(C#N)C#N)C(=O)N2CCc1ccccc1", "f"],
  ["O=C1/C(=C/c2ccc3c(c2)OCO3)CCC/C1=C\\c1ccc2c(c1)OCO2", "f"],
  ["CCCCOC(=O)CNc1nnc(SCC(=O)OCC)[nH]c1=O", "t"],
  ["O=C(O)CSc1c2c(nc3cc(C(=O)Nc4cccc(C(F)(F)F)c4)ccc13)CCCC2", "t"],
  ["CCOc1ccc(C(c2c(C)[nH][nH]c2=O)c2c(C)[nH][nH]c2=O)cc1OCC", "t"],
  ["CCOc1c(Br)cc(/C=C2\\C(=O)N(CCC#N)N=C2C)cc1OC", "t"]
]}

* * *

- assay.overview: counter-screen: blocks GFP chromophore formation, dose response, counter-screen, biochemical, fluorescence, homogeneous (AID 434968)
- condition.details: cell-free GFP chromophore formation
In all, about 2,100 compounds went through this assay and about 1,800 (86%) were called active. So high a share suggests a set chosen from earlier hits. Not all results are given here.
This listing pairs molecules with measured EC50.
measurement.name: EC50

{"columns": ["molecule", "reported.measurement"],
 "data": [
  ["Cc1ccc(CNC(=O)CCN2C(=O)[C@@H]3Cc4ccccc4CN3C2=O)cc1", "> 38 µM (inactive)"],
  ["CCCCCCCCCCOC(=O)Cn1c(COc2cccc(OC)c2)[n+](C)c2ccccc21", "10.4 µM (active)"],
  ["NC(=O)CC[C@@H]1NC(=O)[C@H](CO)NC(=O)c2cc([N+](=O)[O-])cc(I)c2NCC[C@@H](C(N)=O)NC1=O", "22.5 µM (active)"],
  ["Oc1ccc(N=Cc2sc3ccccc3c2Cl)cc1", "> 38 µM (inactive)"],
  ["CCOC(=O)N1CCC(c2cc(=O)n(-c3ccccc3)[nH]2)CC1", "7.17 µM (active)"],
  ["CC(CCn1cccn1)NC(=O)CCc1nnc(CCc2ccccc2)o1 (configuration not stated)", "> 38 µM (inactive)"],
  ["CCOCC(=O)NCc1ccc2c(c1)cc(C)n2C", "> 12 µM (inactive)"],
  ["COc1ccc(C(=O)NC(=S)NNC(=O)CCc2ccccc2)cc1", "> 38 µM (inactive)"],
  ["Cc1ccc(N(Cc2cc(=O)[nH]c3ccccc23)C(=O)CCl)cc1", "0.148 µM (active)"],
  ["COc1ccc(S(=O)(=O)/N=C2\\C=C(NS(=O)(=O)c3ccccc3)C(=O)c3ccccc32)cc1", "3.05 µM (active)"],
  ["COc1cccc(/C=N/Nc2cc(C)nc(-c3ccccc3O)n2)c1O", "> 38 µM (inactive)"],
  ["CCOC(=O)C(CC)Sc1ncnc2c1nnn2-c1ccc(F)cc1 (configuration not stated)", "> 38 µM (inactive)"],
  ["CC1=NNC(=O)C1Cc1c(Cl)cccc1Cl (configuration not stated)", "3.71 µM (active)"],
  ["Oc1c(Cl)cc(Cl)c(Cl)c1Cc1c(O)c(Cl)cc(Cl)c1Cl", "7.06 µM (active)"],
  ["CCCCCCCCCCOC(=O)Cn1c(COc2ccc(C)cc2)[n+](C)c2ccccc21", "16.1 µM (active)"],
  ["O=C(Nc1ccccc1Cl)/C(Cl)=C(\\Cl)S(=O)c1ccccc1 (configuration not stated)", "1.31 µM (active)"],
  ["CC(C)OC(=O)CN1C(=O)C(=O)c2ccccc21", "22.5 µM (active)"]
]}
